assayedSystem: Gal(a1-3)Gal(b1-4)[Fuc(a1-3)]GlcNAc(b1-2)Man(a1-3)[Gal(a1-3)Gal(b1-4)[Fuc(a1-3)]GlcNAc(b1-2)Man(a1-6)]Man(b1-4)GlcNAc(b1-4)GlcNAc
assayOverview: glycan array binding signal (z-score within array); higher = stronger binding
experimentalParameters: glycan notation: IUPAC condensed, linker removed
Only a selection was taken, and the strongest signals are over-represented in it overall.
Listed binders paired with reported glycan array binding signal (z-score)
Format: numeric value only, no unit, no commentary.

SUN4 (Saccharomyces cerevisiae), P53616 (protein) MGSSHHHHHHSSGLVPRGSHNGSIYGDLADFSGPYEKFEDGTIPCGQFPSGQGVIPISWLDEGGWSGVENTDTSTGGSCKEGSYCSYACQPGMSKTQWPSDQPSDGRSIGGLLCKDGYLYRSNTDTDYLCEWGVDAAYVVSELSNDVAICRTDYPGTENMVIPTYVQAGDSLPLTVVDQDTYYTWQGLKTSAQYYVNNAGISVEDACVWGSSSSGVGNWAPLNFGAGSSDGVAYLSLIPNPNNGNALNFNVKIVAADDSSTVNGECIYENGSFSGGSDGCTVSVTAGKAKFVLYN
3.09
CALR truncated at D342 (Homo sapiens) (protein) EPAVYFKEQFLDGDGWTSRWIESKHKSDFGKFVLSSGKFYGDEEKDKGLQTSQDARFYALSASFEPFSNKGQTLVVQFTVKHEQNIDCGGGYVKLFPNSLDQTDMHGDSEYNIMFGPDICGPGTKKVHVIFNYKGKNVLINKDIRCKDDEFTHLYTLIVRPDNTYEVKIDNSQVESGSLEDDWDFLPPKKIKDPDASKPEDWDERAKIDDPTDSKPEDWDKPEHIPDPDAKKPEDWDEEMDGEWEPPVIQNPEYKGEWKPRQIDNPDYKGTWIHPEIDNPEYSPDPSIYAYDNFGVLGLDLWQVKSGTIFDNFLITNDEAYAEEFGNETWGVTKAAEKQMKD
2.73

Next binder, glycan array binding signal (z-score) to be filled in.
[in] Hello, please tell me recorded glycan array binding signal (z-score) for this one: CCL2 (Coprinopsis cinerea), B3GA02 (protein) MDSPAVTLSAGNYIIYNRVLSPRGEKLALTYPGRQRTPVTVSPLDGSSEQAWILRSYDSNSNTWTISPVGSPNSQIGWGAGNVPVVLPPNNYVWTLTLTSGGYNIQDGKRTVSWSLNNATAGEEVSIGADATFSGRWVIEKV
[out] 4.37
